testTarget: T1, human MSLN-FL-his protein (human, UniProt Q13421 296-580)
T1 construct: Made in HEK293E cells, purified on nickel column; it is put last here; also called human MSLN full-length protein; hMSLN-FL-his; not shown: His tag
T1 sequence (Q13421 other isoform, or with tags, fused parts or gaps): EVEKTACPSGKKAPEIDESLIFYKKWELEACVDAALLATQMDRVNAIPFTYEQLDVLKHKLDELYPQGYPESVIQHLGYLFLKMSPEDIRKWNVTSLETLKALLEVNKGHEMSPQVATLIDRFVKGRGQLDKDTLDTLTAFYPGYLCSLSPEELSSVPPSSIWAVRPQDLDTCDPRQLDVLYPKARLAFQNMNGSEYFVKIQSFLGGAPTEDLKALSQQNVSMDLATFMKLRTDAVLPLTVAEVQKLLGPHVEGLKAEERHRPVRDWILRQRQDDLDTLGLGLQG
testProtocol: ELISA on coated antigen, no antibody (blank, column 'none')
assayReadout: OD450
Give the figure together with its unit, number first.

Below, each entry is followed by its recorded OD450 result.
{"columns": ["binder", "OD450"],
 "data": [
  ["S009-F8-32.3 (antibody, human IgG1, kappa, V domains shown, Human-murine chimeric antibody, human IgG1 heavy and kappa light constant regions) VH: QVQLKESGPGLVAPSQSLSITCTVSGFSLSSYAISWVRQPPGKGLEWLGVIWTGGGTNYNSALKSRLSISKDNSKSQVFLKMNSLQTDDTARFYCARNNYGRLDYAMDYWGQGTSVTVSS VL: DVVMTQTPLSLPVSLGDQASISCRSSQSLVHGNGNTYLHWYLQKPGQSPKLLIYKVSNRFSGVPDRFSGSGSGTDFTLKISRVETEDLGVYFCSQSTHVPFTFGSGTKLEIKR", "0.04 OD"],
  ["S009-F8-28.23 (antibody, human IgG1, kappa, V domains shown, Human-murine chimeric antibody, human IgG1 heavy and kappa light constant regions) VH: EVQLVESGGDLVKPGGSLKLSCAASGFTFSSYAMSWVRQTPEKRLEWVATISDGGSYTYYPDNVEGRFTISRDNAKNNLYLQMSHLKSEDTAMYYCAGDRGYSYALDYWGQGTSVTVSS VL: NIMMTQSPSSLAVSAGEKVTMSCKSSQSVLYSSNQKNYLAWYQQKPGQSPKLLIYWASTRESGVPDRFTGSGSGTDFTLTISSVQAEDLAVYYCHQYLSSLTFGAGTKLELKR", "0.05 OD"],
  ["S009-F8-13.8 (antibody, human IgG1, kappa, V domains shown, Human-murine chimeric antibody, human IgG1 heavy and kappa light constant regions) VH: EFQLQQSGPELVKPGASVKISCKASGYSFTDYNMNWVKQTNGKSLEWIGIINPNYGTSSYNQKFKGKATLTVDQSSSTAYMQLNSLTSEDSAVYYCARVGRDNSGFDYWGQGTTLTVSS VL: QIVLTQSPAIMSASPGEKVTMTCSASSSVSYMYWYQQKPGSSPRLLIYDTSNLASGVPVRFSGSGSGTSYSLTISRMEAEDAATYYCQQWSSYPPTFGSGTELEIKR", "0.05 OD"]
]}

Incoming: Fill in the blank: the reported OD450 of S009-F8-12.13 (antibody, human IgG1, kappa, V domains shown, Human-murine chimeric antibody, human IgG1 heavy and kappa light constant regions) VH: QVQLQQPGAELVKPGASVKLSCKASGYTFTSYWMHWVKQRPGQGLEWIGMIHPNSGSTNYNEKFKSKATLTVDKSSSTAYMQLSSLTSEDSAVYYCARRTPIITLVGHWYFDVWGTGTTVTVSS VL: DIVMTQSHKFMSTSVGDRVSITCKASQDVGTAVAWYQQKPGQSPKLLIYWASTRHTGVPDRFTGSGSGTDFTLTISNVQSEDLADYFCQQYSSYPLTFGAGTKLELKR is ____.
Outgoing: 0.05 OD

Incoming: Follow-up item: S009-F8-27.1 (antibody, human IgG1, kappa, V domains shown, Human-murine chimeric antibody, human IgG1 heavy and kappa light constant regions) VH: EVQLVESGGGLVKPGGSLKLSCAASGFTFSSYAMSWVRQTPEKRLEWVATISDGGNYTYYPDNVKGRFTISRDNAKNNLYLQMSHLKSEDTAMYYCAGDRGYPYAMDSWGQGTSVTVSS VL: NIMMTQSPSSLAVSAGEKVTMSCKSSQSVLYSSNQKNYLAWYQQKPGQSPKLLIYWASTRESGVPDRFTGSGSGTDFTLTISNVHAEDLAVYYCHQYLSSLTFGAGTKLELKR
Outgoing: 0.04 OD
